# Lookup of reported CTG-3D luminescence at 96 h keyed by entry
Tested on: HCI-019 (organoid from a triple-negative breast cancer xenograft)
experiment-description: CTG-3D luminescence at 96 h relative to day-0 seeding control (ratio to day 0); higher = more growth / less cytotoxicity; PDxO 3D drug screen, 96 h, CTG-3D normalised to day-0 seeding control.
recorded-conditions: 0.00025 µM; days in culture: 131
Lab note: record just the number, no unit beside it.

Record excerpt, results attached:
[[record]]
line_notation = "O=C(c1ccc(F)c(F)c1Nc1ccc(I)cc1F)N1CC(O)([C@@H]2CCCCN2)C1"
readout_number = 3.62

[[record]]
line_notation = "NC1(C(=O)N[C@@H](CCO)c2ccc(Cl)cc2)CCN(c2nc[nH]c3nccc2-3)CC1"
readout_number = 3.67

[[record]]
line_notation = "CS(=O)(=O)c1ccc(C(=O)Nc2ccc(Cl)c(-c3ccccn3)c2)c(Cl)c1"
readout_number = 2.54


Ask: Entry under review: NC(=O)c1cccc2cn(-c3ccc([C@@H]4CCCNC4)cc3)nc12 . Reported CTG-3D luminescence at 96 h?
Result: 3.06
